Tested on: XF498
assay.remarks: NCI tumour cell line growth inhibition, 48 h
Active and inactive are the calls of the source. Cut-off read from the data, not from the text of the source: active = GI50 up to about 1.1 µM and inactive = higher.
# reported GI50; entries follow
quantity.kind: GI50

[[record]]
compound = "NC(=S)N/N=C(\\C(=O)Nc1cccc([N+](=O)[O-])c1)c1nc2ccc([N+](=O)[O-])cc2nc1O"
experimental_value = "36.1 µM (inactive)"

[[record]]
compound = "C=CCN(N=O)C(=O)N(CCC)CCCC(NC(C)=O)C(=O)NCc1ccccc1 (stereo not given)"
experimental_value = "> 100 µM (inactive)"

[[record]]
compound = "NCCCNCCSSCc1ccccc1CSSCCNCCCN"
experimental_value = "85.1 µM (inactive)"

[[record]]
compound = "O=C(Nc1nc2ccc([N+](=O)[O-])cc2s1)C(=O)C(C(=O)c1ccccc1F)C1OC(=O)c2ccccc21 (stereo not given)"
experimental_value = "48.3 µM (inactive)"

[[record]]
compound = "COc1ccc(CC(=O)c2cc(OC)c(OC)cc2C)cc1OC"
experimental_value = "25.5 µM (inactive)"


###

# reported GI50; entries follow
Test system: CAKI-1
assay.remarks: NCI tumour cell line growth inhibition, 48 h
Active and inactive are the calls of the source. Rule as the data show it: active = GI50 up to about 1.1 µM and inactive = higher.
quantity.kind: GI50

[[record]]
molecule = "Cc1cccc(-c2cc(O)c3c(C)cc(C)nc3n2)c1"
quantity_kind = "GI50"
experimental_value = "5.66 µM (inactive)"

[[record]]
molecule = "CCCCCC(=O)OCCOCCOCCOCCOCCOCc1ccccc1"
quantity_kind = "GI50"
experimental_value = "> 100 µM (inactive)"

[[record]]
molecule = "CNC(=S)OCCC(C)CCCC(C)C (stereo not drawn)"
quantity_kind = "GI50"
experimental_value = "17.1 µM (inactive)"

[[record]]
molecule = "CC(=O)N1C/C(=C\\c2ccc(N(C)C)cc2)C(=O)/C(=C/c2ccc(N(C)C)cc2)C1"
quantity_kind = "GI50"
experimental_value = "41.1 µM (inactive)"

[[record]]
molecule = "CCCSc1ccc2[nH]c(/N=C/c3ccco3)cc2c1"
quantity_kind = "GI50"
experimental_value = "34 µM (inactive)"

[[record]]
molecule = "NC(=S)NN=Cc1ccccc1OCc1cccc(COc2ccccc2C=NNC(N)=S)n1"
quantity_kind = "GI50"
experimental_value = "> 100 µM (inactive)"

[[record]]
molecule = "Cc1ccc(S(=O)(=O)n2c3ccc(Br)cc3c3nc4ccccc4nc32)cc1"
quantity_kind = "GI50"
experimental_value = "> 100 µM (inactive)"

[[record]]
molecule = "Cc1cc(=O)[nH]c(-n2[nH]c(C)c(CCO)c2=O)n1"
quantity_kind = "GI50"
experimental_value = "> 100 µM (inactive)"


###

Test system: U-251
assay.remarks: NCI tumour cell line growth inhibition, 48 h
The source made the active and inactive calls. No stated cut-off is given here; in the data, active = GI50 up to about 1.1 µM and inactive = higher.
Outcome codes: label 1 = active, label 0 = inactive

[[record]]
molecule = "CC(=O)NC1C(OCc2ccccc2)OC(CO)C(O)C1OCC(=O)N[C@@H](C)C(=O)N[C@H](CCC(=O)NCCCNc1c2ccccc2nc2cccc([N+](=O)[O-])c12)C(N)=O (some centres undefined)"
tested_target = "U-251"
group_label = "label 1"

[[record]]
molecule = "O=C(NC/C=C/Br)NC1CCNc2ccccc21 (centres undefined)"
tested_target = "U-251"
group_label = "label 0"

[[record]]
molecule = "Oc1ccccc1/C=N/N1C(=S)N(c2ccccc2)C(=N\\c2ccccc2)/C1=N/c1ccccc1"
tested_target = "U-251"
group_label = "label 0"

[[record]]
molecule = "O=C1C2=Nc3ccccc3C(O)(C(=O)O)N2c2ccccc21 (centres undefined)"
tested_target = "U-251"
group_label = "label 0"

[[record]]
molecule = "N#CCC1C2CC3C(C2=O)C13 (centres undefined)"
tested_target = "U-251"
group_label = "label 0"

[[record]]
molecule = "COc1ccc(CC(=O)c2cc(OC)c(OC)cc2C)cc1OC"
tested_target = "U-251"
group_label = "label 0"

[[record]]
molecule = "C[S+](C)([O-])=Nn1c(=O)n2n(c1=O)[C@H]1CC[C@@H]2C1"
tested_target = "U-251"
group_label = "label 0"

[[record]]
molecule = "Cc1c(S(=O)(=O)N/C(=N\\O)Nc2ccc(Cl)cc2)sc2ccc(Cl)cc12"
tested_target = "U-251"
group_label = "label 0"

[[record]]
molecule = "O=C1CCC(=O)N1Sc1ccccc1"
tested_target = "U-251"
group_label = "label 0"

[[record]]
molecule = "Cc1cccc(Nc2cn(CCOc3ccccc3)c(=O)[nH]c2=O)c1"
tested_target = "U-251"
group_label = "label 0"

[[record]]
molecule = "O=C1/C(=C/c2ccc(Cl)cc2)CNC/C1=C\\c1ccc(Cl)cc1"
tested_target = "U-251"
group_label = "label 0"

[[record]]
molecule = "O=c1[nH]nc(-c2ccccc2)n1/N=C/c1ccc([N+](=O)[O-])cc1"
tested_target = "U-251"
group_label = "label 0"

[[record]]
molecule = "COc1cc2c(OC)cc1CSCc1sc(C)c(c1Br)CSC2"
tested_target = "U-251"
group_label = "label 0"

[[record]]
molecule = "O=[N+]([O-])c1ccc(/N=N\\c2c(O)ccc3ccccc23)c([N+](=O)[O-])c1"
tested_target = "U-251"
group_label = "label 0"

[[record]]
molecule = "CCNC(=S)NNC(=O)CSc1nc2ccc(I)cc2c(=O)n1Cc1ccccc1"
tested_target = "U-251"
group_label = "label 0"

[[record]]
molecule = "O=C(/C(=C\\c1ccccc1)CN1CCOCC1)c1ccc(Br)cc1"
tested_target = "U-251"
group_label = "label 0"

[[record]]
molecule = "NCCCNCCSSCCCCS(=O)O"
tested_target = "U-251"
group_label = "label 0"

[[record]]
molecule = "COc1ccc(NC(=O)COC(=O)c2cccc3c(=O)c4ccccc4[nH]c23)cc1"
tested_target = "U-251"
group_label = "label 0"

[[record]]
molecule = "O=C(/C=C\\Nc1ccccc1O)C(F)(F)F"
tested_target = "U-251"
group_label = "label 0"

[[record]]
molecule = "O=C(CCC(=O)c1ccc(Cl)cc1)NO"
tested_target = "U-251"
group_label = "label 0"

[[record]]
molecule = "Cc1nn(-c2ccccc2)c2c1C(c1cc3ccccc3nc1Cl)NC(=S)N2 (centres undefined)"
tested_target = "U-251"
group_label = "label 0"

[[record]]
molecule = "CC(C)(C)c1cc(C2=NNC(c3ccccc3)C2)cc(C(C)(C)C)c1O (centres undefined)"
tested_target = "U-251"
group_label = "label 0"

[[record]]
molecule = "CN(C)CCCN1c2ccc([N+](=O)[O-])cc2CCc2cccc([N+](=O)[O-])c21"
tested_target = "U-251"
group_label = "label 0"

[[record]]
molecule = "CC(C)c1ccc(/C=C2\\N=C(c3ccc([N+](=O)[O-])cc3)OC2=O)cc1"
tested_target = "U-251"
group_label = "label 0"

[[record]]
molecule = "C=CCN(N=O)C(=O)NCCCCC(NC(C)=O)C(=O)NCc1ccccc1 (centres undefined)"
tested_target = "U-251"
group_label = "label 0"

[[record]]
molecule = "CC(C)C1CN1CC(O)Cn1ccnc1[N+](=O)[O-] (centres undefined)"
tested_target = "U-251"
group_label = "label 0"

[[record]]
molecule = "OCC1OC(NC(=S)NCCC(F)(F)C(F)(F)C(F)(F)C(F)(F)C(F)(F)C(F)(F)F)C(O)C(O)C1O (centres undefined)"
tested_target = "U-251"
group_label = "label 0"

[[record]]
molecule = "CC(C)=CCC[C@@H](C)C1=C(O)C(O)C(C)=C2N=C(c3ccccc3)C(=O)OC21 (some centres undefined)"
tested_target = "U-251"
group_label = "label 0"

[[record]]
molecule = "CCOC(=O)CC1(Cc2ccc(OCc3ccccc3)cc2)C(=O)OC(c2ccccc2)N1C(=O)c1ccccc1 (centres undefined)"
tested_target = "U-251"
group_label = "label 0"


###

Test system: A549
assay.remarks: NCI tumour cell line growth inhibition, 48 h
Active and inactive are the calls of the source. Cut-off read from the data, not from the text of the source: active = GI50 up to about 1.1 µM and inactive = higher.
# reported GI50; entries follow
quantity.kind: GI50

[[record]]
structure_smiles_string = "COC1=C(Br)[C@H](O)[C@@]2(C=C1Br)CC(C(=O)NCCCCCNC(=N)N)=NO2"
experimental_value = "> 10 µM (inactive)"

[[record]]
structure_smiles_string = "COc1cc(Oc2nc3c(N)cc(C(F)(F)F)cc3nc2-c2ccccc2)cc(OC)c1OC"
experimental_value = "5 µM (inactive)"

[[record]]
structure_smiles_string = "Cc1ccc(S(=O)(=O)Nc2ccccc2C=O)cc1"
experimental_value = "27.1 µM (inactive)"

[[record]]
structure_smiles_string = "Cc1cc(NCCCCCCCNc2cc(C)nc3cc(N)ccc23)c2ccc(N)cc2n1"
experimental_value = "29.9 µM (inactive)"


###

# reported GI50; entries follow
Tested on: Hs-578T
assay.remarks: NCI tumour cell line growth inhibition, 48 h
Calls of active or inactive are those of the source. No stated cut-off is given here; in the data, active = GI50 up to about 1.1 µM and inactive = higher.
quantity.kind: GI50

[[record]]
compound = "Cc1ccsc1C(=S)Nc1ccc(Cl)c(/C=N/OC(C)C)c1"
tested_target = "Hs-578T"
quantity_kind = "GI50"
experimental_value = "45.8 µM (inactive)"

[[record]]
compound = "O=C1C=CC(=O)N1n1c(Cc2ccccc2)n[nH]c1=O"
tested_target = "Hs-578T"
quantity_kind = "GI50"
experimental_value = "> 100 µM (inactive)"

[[record]]
compound = "Cc1nnc(N2C(=O)C(=Cc3ccc(Cl)cc3)N=C2c2ccc(Cl)cc2)nc1/C=C\\c1ccc(N(C)C)cc1"
tested_target = "Hs-578T"
quantity_kind = "GI50"
experimental_value = "> 100 µM (inactive)"

[[record]]
compound = "NC(=O)NCCCC(NC(=O)OCCCCn1ccc(=O)[nH]c1=O)C(=O)O (configuration not stated)"
tested_target = "Hs-578T"
quantity_kind = "GI50"
experimental_value = "> 100 µM (inactive)"

[[record]]
compound = "COc1cc(OC)c2c(=O)c(OC)c(-c3ccc4c(c3)OCO4)oc2c1OC"
tested_target = "Hs-578T"
quantity_kind = "GI50"
experimental_value = "> 100 µM (inactive)"

[[record]]
compound = "COc1cc(C2SCC(=O)N2c2ccccn2)cc(OC)c1OC (configuration not stated)"
tested_target = "Hs-578T"
quantity_kind = "GI50"
experimental_value = "> 100 µM (inactive)"

[[record]]
compound = "CC(C)C1SCc2nc3ccccc3n21 (configuration not stated)"
tested_target = "Hs-578T"
quantity_kind = "GI50"
experimental_value = "36.1 µM (inactive)"

[[record]]
compound = "O=P1(c2ccccc2)C(c2ccccc2)=CC=C1c1ccccc1"
tested_target = "Hs-578T"
quantity_kind = "GI50"
experimental_value = "37.8 µM (inactive)"

[[record]]
compound = "COC(=O)C1=C(OC(=O)/C=C/c2ccc(Cl)cc2)C(C(=O)OC)[C@@]2(O)[C@@H](C(=O)OC)[C@H](C)C[C@@H]1[C@@H]2C(=O)OC (some centres not stated)"
tested_target = "Hs-578T"
quantity_kind = "GI50"
experimental_value = "3.9 µM (inactive)"

[[record]]
compound = "COCCOC1=CC(=O)c2c(O)ccc(O)c2C1=O"
tested_target = "Hs-578T"
quantity_kind = "GI50"
experimental_value = "4.04 µM (inactive)"

[[record]]
compound = "O=[N+]([O-])C(Cl)C(Cl)C(Cl)=C(Cl)Cl (configuration not stated)"
tested_target = "Hs-578T"
quantity_kind = "GI50"
experimental_value = "25.1 µM (inactive)"

[[record]]
compound = "CC(=O)N1CC[N+](C)(CCCCN2c3ccccc3Sc3cc(N=[N+]=[N-])ccc32)CC1"
tested_target = "Hs-578T"
quantity_kind = "GI50"
experimental_value = "75.9 µM (inactive)"

[[record]]
compound = "O=C1c2ccccc2-c2cc([N+](=O)[O-])c([N+](=O)[O-])cc21"
tested_target = "Hs-578T"
quantity_kind = "GI50"
experimental_value = "3.78 µM (inactive)"

[[record]]
compound = "Cc1cc(=O)oc2c(C)c3oc(CBr)c(Br)c3cc12"
tested_target = "Hs-578T"
quantity_kind = "GI50"
experimental_value = "44.1 µM (inactive)"

[[record]]
compound = "O=C(CCC(=O)c1ccc(Cl)cc1)NO"
tested_target = "Hs-578T"
quantity_kind = "GI50"
experimental_value = "> 100 µM (inactive)"

[[record]]
compound = "O=C1NC(S(=O)(=O)O)=NNC12c1ccccc1-c1ccccc12"
tested_target = "Hs-578T"
quantity_kind = "GI50"
experimental_value = "> 10 µM (inactive)"

[[record]]
compound = "COc1ccc2c(cnc3c4cc(OC)c(OC)cc4ccc23)c1"
tested_target = "Hs-578T"
quantity_kind = "GI50"
experimental_value = "> 100 µM (inactive)"

